The values you see were collected from ChEMBL document CHEMBL6182948.

species on record: Homo sapiens; experiment: Selectivity index, ratio of IC50 for human recombinant CYP1A1 to IC50 for human recombinant CYP1B1 using 7-ethoxyresorufin as substrate
# key: entry, value: Ratio IC50

givenSmiles: O=C(Nc1cc(Cl)cc(Cl)c1)c1nc(-c2ccc(Br)cc2)cs1
Ratio IC50: > 3790
//
givenSmiles: NC(=O)c1cccc(-c2csc(C(=O)Nc3ccc(C(F)(F)F)cc3)n2)c1
Ratio IC50: 20.2
//
givenSmiles: O=C(Nc1cc(Cl)cc(Cl)c1)c1nc(-c2ccccc2Cl)cs1
Ratio IC50: 25.6
//
givenSmiles: Cc1sc(C(=O)Nc2cc(Cl)cc(Cl)c2)nc1-c1ccc(F)cc1
Ratio IC50: 55.4
//
givenSmiles: CC(C)c1ccc(-c2csc(C(=O)Nc3cc(Cl)cc(Cl)c3)n2)cc1
Ratio IC50: 1.7
